All values here come from the supplement of paper PMC9170038.

Test system: MS2 coat protein
Assay: apparent KD of MS2 coat protein; designed switch direction (-1 OFF switch, 1 ON switch): -1; higher = weaker reporter binding
Conditions: input ligand: microRNA oligo, concentration not stated
Would you mind telling me the reported apparent KD of MS2 coat protein of each entry?
Numbers only; they are read as nM.

Hello, please tell me recorded apparent KD of MS2 coat protein for this one: UCUCGCUGGCGAGGAUAUCCUGUGCGGUUCCGGCUCGUGUCUGUUACAUGAGGAUCACCCAUGUGGGAGAAGGUGUCUGUGGCC [Design 96] (Eterna round: R96, puzzle: Exclusion NG 2)
15.4

Hello, please tell me recorded apparent KD of MS2 coat protein for this one: CUCCUCAUGACGCCUAAACACAUGAGGAUCACCCAUGUACAGGCUUUUUGUCGUCUUAUAAUAAAACCGAGGAUACG [Orlaorusti] (Eterna round: R96, puzzle: Sensor v3, turn-off variant 1)
52.2

Hello, please tell me recorded apparent KD of MS2 coat protein for this one: UUAUUGUAUGUAGGAUAUGCGUAUUAUUAUUGGGCAGAAGGACAUGAGGAUCACCCAUGUAUGUUGUUGUUAUAUAUUAUAUAU [Title] (Eterna round: R96, puzzle: Exclusion NG 1)
39.3

---

Tested on: K4 kissing-loop RNA reporter;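 also: bound reporter read as fluorescence of individual clusters on recovered sequencing chips by microscopy, with normalized cluster intensities fitted with a binding model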
Experiment: apparent KD of K4 kissing-loop reporter; higher = weaker reporter binding
Conditions: Eterna round: R107; input ligand: arginine 13.2 mM
Tick yes (1) if apparent KD of K4 kissing-loop reporter is 200 nM or greater. Tick no (0) if apparent KD of K4 kissing-loop reporter is less than 200 nM.

# check: apparent KD of K4 kissing-loop reporter of AAAUAGCAGCAACGAGUGAUGUUCGACGAUACCAGCCUCGAUAGAGGCCCUUGGCAGCGUAAAUGAUCACAAAGCCAAGGGCUGC [#SwitchBubble 2] is greater than or equal to 200 nM
yes (1)

# check: apparent KD of K4 kissing-loop reporter of UCGAUAGCCAGCGAUACCAGCCCAGUGAUGUUGGGCACAUGGUUGCGGGAAAUCCUAUUGGGCCCUUGGCAGCGCUUGCAUGGGU [Anbixeza] is greater than or equal to 200 nM
no (0)

# check: apparent KD of K4 kissing-loop reporter of GCGAAGAGAGAAGGAUAUUAGUAAUGCGUCAUGCGCCCUUACCAGUUAGUGAUGUUAACAAUACAUUAAGAAGGUCUCGGAAUCC [theeternabot_sameState_KL_FMN_B_50] is greater than or equal to 200 nM
no (0)

# check: apparent KD of K4 kissing-loop reporter of ACAGUACCGGGAAGGAGCGUGAAUGAGAAUGGAUAUAGUGAUGUUAUGUAUACGAACGAAUCGCAGGUAGGUCGCCCGGAUCCCU [SSArgB.aD] is greater than or equal to 200 nM
yes (1)

# check: apparent KD of K4 kissing-loop reporter of CGAAGAUUCCAUGAUACCAGCCUCGGCCCAUAGAGUGAUGUUCUAGUCGGGUCCGUUCGCGGCCCUUGGCAGCAUUUCACCACGA [theeternabot_sameState_KL_Theo_B_44] is greater than or equal to 200 nM
no (0)

# check: apparent KD of K4 kissing-loop reporter of AGGCACGAGCAAGGAUAUCGAGUAGAGUGAUGUUCUGCCUGGGUUGGCCCGAAAGGGCCUUCCCAGCGAGAAGGUGCUCGUGCCU [#2 Same State - FMN A Attempt #9 (HarryS)] is greater than or equal to 200 nM
yes (1)

# check: apparent KD of K4 kissing-loop reporter of GGUGUUGUUUGUGCUGUUUUCCUCGUUUCUCGAGGACCGGUACGGCCGCCACUCGAGUGAUGUUUGGGUAGCGAUCUUUGUUAGU [Bdazzled - #5 Exc. Tryptophan A] is greater than or equal to 200 nM
no (0)

# check: apparent KD of K4 kissing-loop reporter of UGGAUAUAGUGAUGUUAUAUAGAGAUGGAUACCAGCAGAGAGAAUUGCCCUUGGCAGCCGAAAGAAGUAUCAUUAGAGAAGAAUG [ExTheophyl.Ai] is greater than or equal to 200 nM
no (0)
